# Test system: IGROV-1 (sensitive ovarian carcinoma cells)
# measurement.protocol: Sulphorodamine B cytotoxicity test on IGROV-1 cells
# Type: cell-based
# test.context: Table 1, SRB, read-out: IC50 ± SD, IGROV-1
pIC50: −log10 of the molar value.
quantity.kind: pIC50

- compound: "COc1ccc(-c2ccc(/C=C/C(=O)O)cc2)cc1C12CC3CC(CC(C3)C1)C2 [ST1898, reference compound]"
  quantity.kind: "pIC50"
  reported.value: 5.92

###

# Test system: NB4 promyelocytic leukaemia cells
# measurement.protocol: Differentiation of NB4 tumour cells by nitroblue tetrazolium (NBT) reduction, with or without ATRA
# Type: cell-based, human
# test.context: compound alone (without ATRA), 3 days, NBT-reducing activity
quantity.kind: Differentiation AC50

- compound: "O=C(/C=C/c1ccc(-c2ccccc2)cc1)NO [ST3256, E-3-(biphenyl-4-yl)-N-hydroxy-acrylamide, reference compound]"
  quantity.kind: "Differentiation AC50"
  reported.value: "no differentiation"
- compound: "O=C(/C=C/c1ccc(-c2ccc(O)c(C34CC5CC(CC(C5)C3)C4)c2)cc1)NO"
  quantity.kind: "Differentiation AC50"
  reported.value: "no differentiation"
- compound: "O=C(O)c1ccc2cc(-c3ccc(O)c(C45CC6CC(CC(C6)C4)C5)c3)ccc2c1 [ST1964, reference compound]"
  quantity.kind: "Differentiation AC50"
  reported.value: "no differentiation"

###

# Test system: NCI-H460 non-small cell carcinoma cells
# measurement.protocol: Sulphorodamine B cytotoxicity test on NCI-H460 cells
# Type: cell-based
# test.context: Table 3; sensitive NCI-H460; SRB; read-out: IC50 ± SD, NCI-H460
pIC50: −log10 of the molar value.
pIC50 values, listed per item
quantity.kind: pIC50

- molecule: "O=C(O)/C=C/c1ccc(-c2ccc(O)c(C34CC5CC(CC(C5)C3)C4)c2)cc1 [ST1926, reference compound]"
  tgt: "NCI-H460 non-small cell carcinoma cells"
  quantity.kind: "pIC50"
  reported.value: 6.89
- molecule: "O=C(NO)c1ccc2cc(-c3ccc(O)c(C45CC6CC(CC(C6)C4)C5)c3)ccc2c1"
  tgt: "NCI-H460 non-small cell carcinoma cells"
  quantity.kind: "pIC50"
  reported.value: 6.00
- molecule: "COc1ccc(-c2ccc(/C=C/C(=O)O)cc2)cc1C12CC3CC(CC(C3)C1)C2 [ST1898, reference compound]"
  tgt: "NCI-H460 non-small cell carcinoma cells"
  quantity.kind: "pIC50"
  reported.value: 5.92

###

# Tested on: NB4 human promyelocytic leukaemia
# measurement.protocol: Sulphorodamine B cytotoxicity test on NB4 cells
# Type: cell-based
# test.context: Homo sapiens, NB-4; Table 4; NB4 tumour cells; compound alone; read-out: IC50 (μM ± SD)

- compound: "O=C(/C=C/c1ccc(-c2ccc(O)cc2)cc1)NO [ST2782]"
  IC50 (µM): 2.3
- compound: "O=C(/C=C/c1ccc(-c2ccccc2)cc1)NO [ST3256, E-3-(biphenyl-4-yl)-N-hydroxy-acrylamide, reference compound]"
  IC50 (µM): 0.9
- compound: "O=C(/C=C/c1ccc(-c2ccc(O)c(C34CC5CC(CC(C5)C3)C4)c2)cc1)NO [ST2992]"
  IC50 (µM): 0.68
- compound: "O=C(O)c1ccc2cc(-c3ccc(O)c(C45CC6CC(CC(C6)C4)C5)c3)ccc2c1 [ST1964, reference compound]"
  IC50 (µM): 0.4
- compound: "CN(C)c1ccc(-c2ccc(/C=C/C(=O)NO)cc2)cc1 [ST3444, reference compound]"
  IC50 (µM): 0.86

###

pIC50 values, listed per item
# Tested on: NB4 human promyelocytic leukaemia
# measurement.protocol: Sulphorodamine B cytotoxicity test on NB4 cells
# Assay type: cell-based
# test.context: Homo sapiens, NB-4; Table 1; NB4; 24 h treatment, 48 h recovery, SRB; read-out: IC50 ± SD, NB4
pIC50: −log10 of the molar value.
quantity.kind: pIC50

- molecule: "COc1ccc(-c2ccc(/C=C/C(=O)NO)cc2)cc1C12CC3CC(CC(C3)C1)C2 [ST3056]"
  reported.value: 6.22
- molecule: "O=C(O)/C=C/c1ccc(-c2ccc(O)cc2)cc1 [ST2188, E-4-(4-hydroxyphenyl)cinnamic acid, reference compound]"
  reported.value: 4.10
- molecule: "O=C(/C=C/c1ccc(-c2ccc(O)cc2)cc1)NO [ST2782]"
  reported.value: 5.64

###

# System: HCT-116 human colon carcinoma cells
# measurement.protocol: Sulphorodamine B cytotoxicity test on HCT-116 cells
# Format: cell-based
# test.context: Homo sapiens, Table 2, SRB, read-out: IC50 ± SD, HCT-116
# Protocol: The cytotoxic effect of some biphenyl and phenylnaphthyl compounds bearing a hydroxamic acid group is reported herein. […] Tumour cells were seeded in 96-well tissue culture plates at approximately 10% confluence and were allowed to attach and recover for at least 24 h. […] The survival cell was determined as optical density by a Multiskan spectrofluorimeter at 540 nm. […] The amount of cells killed was calculated as the percentage decrease in sulphorodamine B binding compared with control cultures. […]
pIC50: −log10 of the molar value.

- smiles.str: "O=C(C=Cc1ccc(-c2cc3c(c(C45CC6CC(CC(C6)C4)C5)c2)OCCO3)cc1)NO"
  pIC50: 5.59
- smiles.str: "O=C(/C=C/c1ccc(-c2ccc(O)c(C34CC5CC(CC(C5)C3)C4)c2)c(Cl)c1)NO"
  pIC50: 5.27
- smiles.str: "O=C(/C=C/c1ccc(-c2ccc(O)cc2)cc1)NO"
  pIC50: 5.17
- smiles.str: "O=C(/C=C/c1ccc(-c2ccc(O)c(C34CC5CC(CC(C5)C3)C4)c2)cc1)NO"
  pIC50: 5.52
- smiles.str: "COc1ccc(-c2ccc(/C=C/C(=O)NO)cc2)cc1C12CC3CC(CC(C3)C1)C2"
  pIC50: 5.89

Taken from patent US7728039B2.
